Just for reference, paper PMC13486833 is where these values come from.

target: RAGE-Fc chimera protein (UniProt Q15109 23-342); assay: ELISA
Sequence (Q15109 23-342, change not shown): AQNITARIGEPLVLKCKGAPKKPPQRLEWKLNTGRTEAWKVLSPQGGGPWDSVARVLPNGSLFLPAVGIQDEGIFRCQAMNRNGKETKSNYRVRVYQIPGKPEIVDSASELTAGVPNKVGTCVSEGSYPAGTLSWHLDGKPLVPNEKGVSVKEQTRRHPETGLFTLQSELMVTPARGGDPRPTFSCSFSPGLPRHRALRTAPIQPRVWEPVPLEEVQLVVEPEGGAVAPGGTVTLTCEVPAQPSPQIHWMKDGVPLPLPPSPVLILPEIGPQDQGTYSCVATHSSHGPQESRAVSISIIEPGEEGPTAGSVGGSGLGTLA
Exercise: state measured Kd for each of the binders provided.
Number only, in µM; omit the unit.

input: Fill in: Kd of DS-HMGB1 1–214 (natural protein, disulfide bond between C22 and C44) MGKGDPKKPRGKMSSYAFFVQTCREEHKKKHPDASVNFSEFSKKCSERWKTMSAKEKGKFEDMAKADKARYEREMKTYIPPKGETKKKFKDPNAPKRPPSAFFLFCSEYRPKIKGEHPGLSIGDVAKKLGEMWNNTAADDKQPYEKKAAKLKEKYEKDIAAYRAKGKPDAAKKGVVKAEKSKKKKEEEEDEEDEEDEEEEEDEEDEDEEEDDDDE is ___
output: 0.00435

input: Fill in: Kd of 3S-HMGB1 1–214 (natural protein) GKGDPKKPRGKMSSYAFFVQTSREEHKKKHPDASVNFSEFSKKSSERWKTMSAKEKGKFEDMAKADKARYEREMKTYIPPKGETKKKFKDPNAPKRPPSAFFLFSSEYRPKIKGEHPGLSIGDVAKKLGEMWNNTAADDKQPYEKKAAKLKEKYEKDIAAYRAKGKPDAAKKGVVKAEKSKKKKEEEEDEEDEEDEEEEEDEEDEDEEEDDDDE is ___
output: 0.00722

input: Fill in: Kd of DS-HMGB1 1–184 (domain or fragment, disulfide bond between C22 and C44) GKGDPKKPRGKMSSYAFFVQTCREEHKKKHPDASVNFSEFSKKCSERWKTMSAKEKGKFEDMAKADKARYEREMKTYIPPKGETKKKFKDPNAPKRPPSAFFLFCSEYRPKIKGEHPGLSIGDVAKKLGEMWNNTAADDKQPYEKKAAKLKEKYEKDIAAYRAKGKPDAAKKGVVKAEKSKKKK is ___
output: 0.0339

input: Fill in: Kd of FR-HMGB1 1–214 (natural protein) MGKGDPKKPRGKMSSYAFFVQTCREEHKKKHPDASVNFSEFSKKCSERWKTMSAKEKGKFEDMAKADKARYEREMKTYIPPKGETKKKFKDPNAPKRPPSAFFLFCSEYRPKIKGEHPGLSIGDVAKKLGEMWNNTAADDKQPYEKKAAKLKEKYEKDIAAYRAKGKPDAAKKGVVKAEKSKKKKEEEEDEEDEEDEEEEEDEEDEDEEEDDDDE is ___
output: 0.0861
